Below are compounds with their IC50 as measured on IRE1a (Homo sapiens).

Compound	IC50
CCc1cc(-c2cc(NC(=O)Cc3cc(C(F)(F)F)cc(C(F)(F)F)c3)nn2C)cc2cnc(N[C@H]3CC[C@H](N)CC3)nc12 [Compound 5]	5 to 50 nM
CCc1cc(-c2cc(NC(=O)Cc3cc(C(F)(F)F)ccc3C)nn2C)cc2cnc(N[C@H]3CC[C@H](N)CC3)nc12 [Compound 34]	≤ 5 nM

[in] Look up IC50 for this compound: CCc1cc(-c2cc(NC(=O)Nc3ccc(OCCCNC)c(C(F)(F)F)c3)nn2C)cc2cnc(N[C@H]3CC[C@H](N)CC3)nc12 [Compound 29]
[out] ≤ 5 nM

* * *

Listed below: IC50 values for each entry.
# Measured On: IRE1a (Homo sapiens, UniProt O75460)
# Sequence (O75460 19-977): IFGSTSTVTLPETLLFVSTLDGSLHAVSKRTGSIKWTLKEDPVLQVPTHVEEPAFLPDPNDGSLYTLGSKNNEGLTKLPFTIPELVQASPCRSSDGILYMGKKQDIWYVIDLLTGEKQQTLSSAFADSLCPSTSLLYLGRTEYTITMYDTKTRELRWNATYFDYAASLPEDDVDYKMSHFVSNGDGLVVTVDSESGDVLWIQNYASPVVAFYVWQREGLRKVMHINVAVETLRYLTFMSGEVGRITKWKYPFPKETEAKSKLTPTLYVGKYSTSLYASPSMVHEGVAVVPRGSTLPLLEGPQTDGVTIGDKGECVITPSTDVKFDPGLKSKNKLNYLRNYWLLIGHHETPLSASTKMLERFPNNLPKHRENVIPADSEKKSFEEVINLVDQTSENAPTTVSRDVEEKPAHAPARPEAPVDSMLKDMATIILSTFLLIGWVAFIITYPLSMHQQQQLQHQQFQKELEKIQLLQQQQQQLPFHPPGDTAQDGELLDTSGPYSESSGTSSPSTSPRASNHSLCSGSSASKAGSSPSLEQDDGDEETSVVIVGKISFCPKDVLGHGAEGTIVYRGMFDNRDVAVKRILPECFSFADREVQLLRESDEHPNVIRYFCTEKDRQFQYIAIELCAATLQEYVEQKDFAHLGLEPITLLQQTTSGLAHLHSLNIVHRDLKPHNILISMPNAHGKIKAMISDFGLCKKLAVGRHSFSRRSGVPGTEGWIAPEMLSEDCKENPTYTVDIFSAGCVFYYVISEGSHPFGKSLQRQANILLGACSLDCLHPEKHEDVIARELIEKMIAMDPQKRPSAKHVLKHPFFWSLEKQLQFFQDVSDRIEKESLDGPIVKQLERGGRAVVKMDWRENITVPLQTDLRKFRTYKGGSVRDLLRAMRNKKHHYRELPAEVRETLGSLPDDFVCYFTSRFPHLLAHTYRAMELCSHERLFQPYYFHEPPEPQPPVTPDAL

Smiles Representation	Value Measured
CCc1cc(-c2cc(NC(=O)Nc3ccc(OC4CCN(C)CC4)c(C(F)(F)F)c3)nn2C)cc2cnc(N[C@H]3CC[C@H](N)CC3)nc12	≤ 5 nM

[in] Look up IC50 for this compound: `CCc1cc(-c2cc(NC(=O)[C@@H](N)c3ccccc3)nn2C)cc2cnc(N[C@H]3CC[C@H](N)CC3)nc12`
[out] > 100 nM

[in] Look up IC50 for this compound: `Cc1c(-c2cc(NC(=O)Cc3cc(C(F)(F)F)ccc3C(F)(F)F)nn2C)ccc2nc(N[C@H]3CC[C@H](N)CC3)ncc12`
[out] > 100 nM

* * *

pIC50: −log10 of the molar value.
Below are molecules with their pIC50 as measured on IRE1a (Homo sapiens, UniProt O75460).

Smiles Representation	Measured On	pIC50
CCc1cc(-c2cc(NC(=O)Nc3cc(C(F)(F)F)cc(C(F)(F)F)c3)nn2C)cc2cnc(N[C@H]3CC[C@H](N)CC3)nc12	IRE1a (Homo sapiens, UniProt O75460)	7.00 to 7.30
CCc1cc(-c2cc(NC(=O)Cc3cc(C(F)(F)F)ccc3C(F)(F)F)nn2C)cc2cnc(N[C@H]3CC[C@H](NC(=O)COC)CC3)nc12	IRE1a (Homo sapiens, UniProt O75460)	< 7.00

[in] Look up pIC50 for this molecule: `CCc1cc(-c2cc(NC(=O)Cc3ccc(C(F)(F)F)c(F)c3)nn2C)cc2cnc(N[C@H]3CC[C@H](N)CC3)nc12`
[out] ≥ 8.30

[in] Look up pIC50 for this molecule: `CCc1cc(-c2cc(NC(=O)Cc3cc(F)cc(C(F)(F)F)c3)nn2C)cc2cnc(N[C@H]3CC[C@H](N)CC3)nc12`
[out] 7.30 to 8.30

[in] Look up pIC50 for this molecule: `CCc1cc(-c2cc(NC(=O)Cc3cc(C)cc(F)c3)nn2C)cc2cnc(N[C@H]3CC[C@H](N)CC3)nc12`
[out] 7.30 to 8.30

[in] Look up pIC50 for this molecule: `CCc1cc(-c2cc(NC(=O)[C@@H](O)c3ccccc3)nn2C)cc2cnc(N[C@H]3CC[C@H](N)CC3)nc12`
[out] 7.30 to 8.30

[in] Look up pIC50 for this molecule: `CCc1cc(-c2cc(NC(=O)Cc3cccc(C(F)(F)F)c3)nn2C)cc2cnc(N[C@H]3CC[C@H](N(C)C)CC3)nc12`
[out] ≥ 8.30

[in] Look up pIC50 for this molecule: `CCc1cc(-c2cc(NC(=O)Cc3cc(C(F)(F)F)ccc3OC)nn2C)cc2cnc(N[C@H]3CC[C@H](N)CC3)nc12`
[out] ≥ 8.30

[in] Look up pIC50 for this molecule: `CCc1cc(-c2cc(CC(=O)Nc3cccc(C(F)(F)F)c3)nn2C)cc2cnc(N[C@H]3CC[C@H](N)CC3)nc12`
[out] < 7.00

* * *

Listed below: EC50 values for each entry.
# Measured On: IRE1a (Homo sapiens)
# Assay: IRE1a Endoribonuclease Nanoluciferase Assay (XBP1 luciferase reporter in 293 T cells)
# Assay Context: 293 T cells transfected with XBP1 luciferase reporter plasmid

Smiles Representation	EC50
CCc1cc(-c2cc(NC(=O)Cc3cc(C)cc(F)c3)nn2C)cc2cnc(N[C@H]3CC[C@H](N)CC3)nc12	> 100 nM
CCc1cc(-c2cc(NC(=O)Nc3cc(C(F)(F)F)ccc3C(F)(F)F)nn2C)cc2cnc(N[C@H]3CC[C@H](N)CC3)nc12	5 to 50 nM
CCc1cc(-c2cc(NC(=O)Nc3ccc(OCCCNC)c(C(F)(F)F)c3)nn2C)cc2cnc(N[C@H]3CC[C@H](N)CC3)nc12	≤ 5 nM
CCc1cc(-c2cc(NC(=O)Cc3cc(C(F)(F)F)ccc3C)nn2C)cc2cnc(N[C@H]3CC[C@H](N)CC3)nc12	5 to 50 nM
CCc1cc(-c2cc(NC(=O)Cc3ccc(C(F)(F)F)c(F)c3)nn2C)cc2cnc(N[C@H]3CC[C@H](N)CC3)nc12	> 100 nM

Then this compound:
[in] API: value(readout=EC50, system=IRE1a (Homo sapiens)) for record `CCc1cc(-c2cc(NC(=O)Cc3ccc(OCCCNC)c(C(F)(F)F)c3)nn2C)cc2cnc(N[C@H]3CC[C@H](N)CC3)nc12`
[out] 5 to 50 nM

* * *

# Measured On: IRE1a (Homo sapiens, UniProt O75460)
# Assay: IRE1a Endoribonuclease Nanoluciferase Assay (XBP1 luciferase reporter in 293 T cells)
# Assay Context: 293 T cells transfected with XBP1 luciferase reporter plasmid
Listed below: EC50 values for each entry.

Check out these entries, answers already filled in.
Compound	EC50
CCc1cc(-c2cc(NC(=O)Cc3cccc(C(F)(F)F)c3)nn2C)cc2cnc(N[C@H]3CC[C@H](NCCOC)CC3)nc12	50 to 100 nM
Cn1nc(NC(=O)Cc2cccc(C(F)(F)F)c2)cc1-c1cc2cnc(N[C@H]3CC[C@H](N)CC3)nc2c2ccccc12	> 100 nM
CCc1cc(-c2cc(CC(=O)Nc3ccc(OCCCNC)c(C(F)(F)F)c3)nn2C)cc2cnc(N[C@H]3CC[C@H](N)CC3)nc12	5 to 50 nM
CCc1cc(-c2cc(NC(=O)Cc3cc(C(F)(F)F)ccc3C(F)(F)F)nn2C)cc2cnc(N[C@H]3CC[C@H](NC(=O)COC)CC3)nc12	> 100 nM
CCc1cc(-c2cc(NC(=O)Cc3ccc(Cl)c(C(F)(F)F)c3)nn2C)cc2cnc(N[C@H]3CC[C@H](N)CC3)nc12	> 100 nM

[in] Look up EC50 for this compound: CCc1cc(-c2cc(NC(=O)C(C)c3cccc(C(F)(F)F)c3)nn2C)cc2cnc(N[C@H]3CC[C@H](N)CC3)nc12 (stereo partly shown)
[out] > 100 nM

[in] Look up EC50 for this compound: `CCc1cc(-c2cc(NC(=O)Nc3cccc(C(F)(F)F)c3)nn2C)cc2cnc(N[C@H]3CC[C@H](N)CC3)nc12`
[out] 5 to 50 nM
